- Experimental system: AXOR109 (Homo sapiens)
- Construct: expressed in transfected cells; host or cells: melanophore cells, transfected by electroporation
- Assay protocol: Human AXOR109/Melanophore Assay
- Format: cell-based
- Assay setup: 1 h, melanophore assay, normalized to alpha-MSH system max
Listed here: items and their measured Emax.

Illustrative cases are given below, each with its answer.
COc1ccc(S(=O)(=O)N(C)C(C)C(C)N(C)S(=O)(=O)c2ccc(OC)c(OC)c2)cc1OC (stereo not shown); 51 to 75%
COc1ccc(S(=O)(=O)N(CCN(C2CC2)S(=O)(=O)c2ccc(OC)c(OC)c2)C(C)C)cc1OC; 76 to 100%
COc1ccc(S(=O)(=O)N2C[C@@H](C)N(S(=O)(=O)c3ccc(OC)c(OC(F)(F)F)c3)[C@@H](C)C2)cc1OC; 51 to 75%
COc1ccc(S(=O)(=O)N(C)C[C@H]2CCCN2S(=O)(=O)c2ccc(OC)c(OC)c2)cc1OC; 76 to 100%
COc1ccc(S(=O)(=O)N2C[C@H](C)N(S(=O)(=O)c3ccc4c(c3)OCO4)C[C@@H]2C)cc1OC; > 100%
COc1ccc(S(=O)(=O)N2CCN(S(=O)(=O)c3ccc(OC)c(OC)c3)CC2)cc1OC; 51 to 75%

Q: Give the measured Emax of COc1cccc(S(=O)(=O)N2C[C@@H](C)N(S(=O)(=O)c3ccc(OC)c(OC)c3)[C@@H](C)C2)c1 .
Ans: 51 to 75%

Q: Give the measured Emax of CCc1cc(S(=O)(=O)N2CCN(S(=O)(=O)c3ccc(OC)c(OC)c3)CC2)ccc1OC .
Ans: 76 to 100%

Q: Give the measured Emax of COc1ccc(S(=O)(=O)N2CCN(S(=O)(=O)c3ccc(OC)c(OC)c3)C(=O)C2)cc1OC .
Ans: 51 to 75%

Q: Give the measured Emax of COc1ccc(S(=O)(=O)N2CC[C@H](N(C)S(=O)(=O)c3ccc(OC)c(OC)c3)C2)cc1OC (stereo in doubt) .
Ans: 51 to 75%

Q: Give the measured Emax of CCc1cc(S(=O)(=O)N2CCCN(S(=O)(=O)c3ccc(OC)c(OC)c3)CC2)ccc1OC .
Ans: 51 to 75%

Q: Give the measured Emax of CCc1cc(S(=O)(=O)N(C)CCN(C)S(=O)(=O)c2ccc(OC)c(OC)c2)ccc1OC .
Ans: 0 to 50%

Q: Give the measured Emax of COc1ccc(S(=O)(=O)N2C[C@@H](C)N(S(=O)(=O)c3ccc(OC)c(OC)c3)[C@@H](C)C2)cc1 .
Ans: 51 to 75%

Q: Give the measured Emax of COc1ccc(S(=O)(=O)N[C@@H]2CCN(S(=O)(=O)c3ccc(OC)c(OC)c3)C2)cc1OC .
Ans: 76 to 100%

Q: Give the measured Emax of COc1ccc(S(=O)(=O)N2C[C@H](C)N(S(=O)(=O)c3ccc(OC)c(OC)c3)C[C@H]2C)cc1OC .
Ans: 51 to 75%

Q: Give the measured Emax of COc1ccc(S(=O)(=O)N2CCCN(S(=O)(=O)c3ccc4c(c3)OCCO4)CC2)cc1OC .
Ans: 51 to 75%

###

- Experimental system: AXOR109 (Homo sapiens, UniProt Q8TDU6)
- Construct: expressed in transfected cells; host or cells: melanophore cells, transfected by electroporation
- Sequence (Q8TDU6 whole entry): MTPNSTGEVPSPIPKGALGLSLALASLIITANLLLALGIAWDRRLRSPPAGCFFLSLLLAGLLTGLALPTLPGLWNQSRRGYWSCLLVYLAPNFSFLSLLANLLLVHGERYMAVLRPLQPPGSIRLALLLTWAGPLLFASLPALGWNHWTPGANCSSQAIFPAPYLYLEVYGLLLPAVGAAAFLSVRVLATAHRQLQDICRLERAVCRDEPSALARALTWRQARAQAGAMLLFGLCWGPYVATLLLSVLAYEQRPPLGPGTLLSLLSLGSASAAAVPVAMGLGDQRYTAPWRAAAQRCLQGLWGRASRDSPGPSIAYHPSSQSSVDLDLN
- Assay protocol: Human AXOR109/Melanophore Assay
- Assay type: cell-based
- Assay setup: melanophore assay, AXOR109 transfected melanophores
pEC50: −log10 of the molar value.
Listed here: items and their measured pEC50.

Illustrative cases are given below, each with its answer.
CC[C@@H]1CN(S(=O)(=O)c2ccc(OC)c(OC)c2)[C@@H](CC)CN1S(=O)(=O)c1ccc(OC)c(OC)c1 [Example 45]; 5.00 to 5.90
CC=CCN(CCN(C)S(=O)(=O)c1ccc(OC)c(OC)c1)S(=O)(=O)c1ccc(OC)c(OC)c1 [Example 75]; 6.00 to 6.90
COc1ccc(S(=O)(=O)N2CCN(S(=O)(=O)c3ccc(OC)c(OC)c3)[C@@H](C)C2)cc1OC [Example 19]; 5.00 to 5.90
COc1ccc(S(=O)(=O)N2CC(C)(C)N(S(=O)(=O)c3ccc(OC)c(OC)c3)CC2=O)cc1OC [Example 48]; 5.00 to 5.90

# context switch: different molecule, same pEC50
Q: Give the measured pEC50 of CCc1cc(S(=O)(=O)N2CCCN(S(=O)(=O)c3ccc(OC)c(OC)c3)CC2)ccc1OC [Example 41] .
Ans: 6.00 to 6.90
